# Study System: complex I in mitochondrial membranes (Bos taurus, UniProt P03887+P17694+P42026)
# Construct: Complex I from bovine heart were prepared
# Procedure Text: NADH oxidation in bovine mitochondrial membranes
# Setup Conditions: B. taurus membranes 20 μg ml−1; ± SE
Please respond with reported IC50 for every item in the list.
One number for each entry, in nM.

Cc1nc(-c2nc(-c3ccc(OC(F)(F)F)cc3)no2)nn1Cc1cccc(N2CCC(S(C)(=O)=O)CC2)c1 = 113

Then there is this molecule:
Form: molecule = CS(=O)(=O)C1CCN(c2cccc(Cn3cc(-c4nc(-c5ccc(OC(F)(F)F)cc5)no4)ccc3=O)c2)CC1 ; IC50 = 3.4

----------
# Study System: complex I in mitochondrial membranes (Mus musculus, UniProt P03888+Q91WD5+Q9DC70)
# Procedure Text: NADH oxidation in mouse mitochondrial membranes
# Setup Conditions: M. musculus membranes 20 μg ml−1; ± SE
Value Kind: pIC50
Give bare numbers, as −log10 of the molar value.

CS(=O)(=O)C1CCN(c2cccc(Cn3cc(-c4nc(-c5ccc(OC(F)(F)F)cc5)no4)ccc3=O)c2)CC1 = 8.85

Then there is this compound:
Result for Cc1nc(-c2nc(-c3ccc(OC(F)(F)F)cc3)no2)nn1Cc1cccc(N2CCC(S(C)(=O)=O)CC2)c1 , tested on complex I in mitochondrial membranes (Mus musculus, UniProt P03888+Q91WD5+Q9DC70), pIC50: 8.16
